Would you mind telling me the reported inhibition at 20 µM of each entry?
Molecular target: KRas G12D mutant (Homo sapiens, UniProt P01116, G12D)
Construct: fused on or other part: His tag, used for capture on nickel-coated plates
Experiment: Ras GTP binding domain inhibition assay (Cy3-GTP/Cy5-GTP competition)
Settings: 20 μM; with SOS (Table 7A); read-out: KRas G12D mutant + SOS: % inh.
Description: The following method was developed as specific assay for the following proteins: KRas wild type, KRas Q61H mutant, KRas G12C mutant, KRas G12D mutant, HRas wild type, Rac-1, and Rho-A. […] The small GTPases proteins: KRas wild type. KRas Q61H mutant, KRas G12C mutant, KRas G12D mutants, HRas wild type, Rac-1, and Rho-A were expressed as His-tagged proteins. In addition, the Guanosine nucleotide Exchange Factor (GEF) Sos protein (residues 556-1049) was expressed as a His-tagged protein. […]

Retrieve inhibition at 20 µM measured for CO[C@H]1CC[C@@H](Nc2nc(-c3nccn3C)nc3sc(C(=O)N4CCCC4)c(-c4ccccc4)c23)C1 [drawing 926] and print it.
51 to 75%

Complete the entry with inhibition at 20 µM for CO[C@H]1C[C@@H](Nc2nc(-c3nccn3C)nc3sc(C(=O)NC(C)C)c(-c4ccccc4)c23)C1 [drawing 920]
51 to 75%

Output inhibition at 20 µM of COC1CCC(Nc2nc(-c3nccn3C)nc3sc(-c4cccc(O)c4F)c(-c4ccccc4)c23)C1 (stereo not drawn) [drawing 885]
51 to 75%

* * *

Biological target: Rho-A (Homo sapiens, UniProt P61586)
Assay: Ras GTP binding domain inhibition assay (Cy3-GTP/Cy5-GTP competition)
Settings: with SOS, read-out: Rho-A + SOS: % inh.
readout.label: inhibition at 20 µM

Report inhibition at 20 µM under test system Rho-A (Homo sapiens, UniProt P61586) for COc1c(O)nc(-c2ccccn2)nc1Oc1cnn(C)c1 [drawing 938] .
51 to 75%

Provide inhibition at 20 µM, system Rho-A (Homo sapiens, UniProt P61586), entry CO[C@H]1C[C@@H](Nc2nc(-c3nccn3C)nc3sc(-c4ccn(C)n4)c(-c4ccccc4)c23)C1.Cl [drawing 1040]
51 to 75%

Please report the measured inhibition at 20 µM for CO[C@@H]1CCC(Nc2nc(-c3nccn3C)nc3sc(-c4ccn(C)n4)c(-c4ccccc4)c23)C1 (some centres unmarked) [drawing 994] tested on Rho-A (Homo sapiens, UniProt P61586).
76 to 100%

// fetch inhibition at 20 µM for COC1CCN(c2nc(-c3nccn3C)nc3sc(-c4cnn(C)c4)c(-c4ccccc4)c23)C1 (centres unmarked) [drawing 970] ; system: Rho-A (Homo sapiens, UniProt P61586)
76 to 100%

Specify inhibition at 20 µM for COCCNC(=O)c1sc2nc(-c3nccn3C)nc(N[C@@H]3CC[C@H](OC)C3)c2c1-c1ccccc1 [drawing 1060] , system Rho-A (Homo sapiens, UniProt P61586).
76 to 100%

// output inhibition at 20 µM; input COc1c(O)nc(-c2ccccn2)nc1Nc1ccccc1 [drawing 1015] ; system Rho-A (Homo sapiens, UniProt P61586)
51 to 75%

Give measured inhibition at 20 µM for COC1CCN(c2nc(-c3nccn3C)nc3sc(-c4ccnc(N(C)C)c4)c(-c4ccccc4)c23)C1 (centres unmarked) [drawing 958] (Rho-A (Homo sapiens, UniProt P61586)).
26 to 50%

Enter inhibition at 20 µM (test system Rho-A (Homo sapiens, UniProt P61586)) for CO[C@H]1C[C@@H](Nc2nc(-c3nccn3C)nc3sc(C(=O)N4CCOCC4)c(-c4ccccc4)c23)C1 [drawing 1057]
51 to 75%

* * *

Molecular target: KRas G12D mutant (Homo sapiens, UniProt P01116, G12D)
Construct: fused on or other part: His tag, used for capture on nickel-coated plates
Test: Ras GTP binding domain inhibition assay (Cy3-GTP/Cy5-GTP competition)
Conditions: at 20 μM, with SOS; read-out: KRas G12D mutant + SOS: % inh.
readout.label: inhibition at 20 µM

Determine reported inhibition at 20 µM for CO[C@H]1CC[C@@H](Nc2nc(-c3nccn3C)nc3sc(-c4ccn(C(C)C)n4)c(-c4ccccc4)c23)C1 [drawing 1047] ; test system: KRas G12D mutant (Homo sapiens, UniProt P01116, G12D).
51 to 75%

Tell me its inhibition at 20 µM on KRas G12D mutant (Homo sapiens, UniProt P01116, G12D): COC1CCN(c2nc(-c3nccn3C)nc3sc(Br)c(-c4ccccc4)c23)C1 (centres unmarked) [drawing 957]
51 to 75%

Jot down inhibition at 20 µM (KRas G12D mutant (Homo sapiens, UniProt P01116, G12D)) of O=C(c1nc(-c2ccccn2)nc(O)c1O)N1CCOCC1 [drawing 935] .
26 to 50%

Specify the recorded inhibition at 20 µM for COC1CCC(Nc2nc(-c3nccn3C)nc3sc(-c4cccc5[nH]ncc45)c(C)c23)C1 (centres unmarked) [drawing 1030] , system: KRas G12D mutant (Homo sapiens, UniProt P01116, G12D).
51 to 75%

Write down measured inhibition at 20 µM (KRas G12D mutant (Homo sapiens, UniProt P01116, G12D)) for this compound. O=C(NC1CCCC1)c1nc(-c2ccccn2)nc(O)c1O [drawing 947]
1 to 25%

Report its inhibition at 20 µM with KRas G12D mutant (Homo sapiens, UniProt P01116, G12D) as the test system: COc1c(O)nc(-c2ccccn2)nc1Oc1ccccc1 [drawing 948]
26 to 50%

Under KRas G12D mutant (Homo sapiens, UniProt P01116, G12D): report inhibition at 20 µM of COCC1CN(c2nc(-c3nccn3C)nc3sc(-c4cccc(OC)c4F)c(-c4ccc(OC)cc4)c23)C1 [drawing 940] .
51 to 75%

Find inhibition at 20 µM for CO[C@H]1CC[C@@H](Nc2nc(-c3nccn3C)nc(C(=O)N3CCc4c(O)cccc4C3)c2C)C1 [drawing 1036] on KRas G12D mutant (Homo sapiens, UniProt P01116, G12D) and write it down.
26 to 50%

* * *

Test system: MIA PaCa-2 pancreatic cancer cell line
Assay: Cell proliferation assay (DAPI)
Type: cell-based
Settings: Homo sapiens; 10 μM, MIA PaCa-2 (Table 5A); read-out: % Inhibition of cell proliferation, MIA PaCa-2 % inh
Would you kindly list inhibition at 10 µM for each of these molecules?

Give the reported value of inhibition at 10 µM for this record: COc1cccc(-c2sc3nc(-c4nccn4C)nc(N[C@@H]4CC[C@H](OC)C4)c3c2-c2ccccc2)c1F [drawing 619]
76 to 100%

Supply measured inhibition at 10 µM of COC1CCN(C(=O)c2sc3nc(-c4nccn4C)nc(N[C@H]4C[C@@H](OC)C4)c3c2-c2ccccc2)C1 (stereo partly shown) [drawing 658] in your reply.
26 to 50%

Quote inhibition at 10 µM reported for CN(C)CCOCCNc1nc(-c2nccn2C)nc2sc(-c3ccn(C)n3)c(-c3ccccc3)c12 [drawing 642] please.
76 to 100%

Give inhibition at 10 µM for CO[C@H]1CC[C@@H](Nc2nc(-c3nccn3C)nc3sc(-c4ccn(C)n4)c(C)c23)C1 [drawing 650]
76 to 100%

Name the recorded inhibition at 10 µM of the item COCCn1ccnc1-c1nc(O)c2scc(-c3ccc(OCC(C)C)nc3)c2n1 [drawing 633] in your answer.
76 to 100%

Return inhibition at 10 µM (reported value) for this molecule: CCOc1cccc(Nc2nc(-c3ccccn3)nc(O)c2OC)c1 [drawing 617]
76 to 100%

Write down inhibition at 10 µM measured for item COc1cccc(-c2sc3nc(-c4nccn4C)nc(N[C@H]4C[C@@H](OC)C4)c3c2-c2ccccc2)c1F [drawing 626]
76 to 100%

Consider the molecule COc1cccc(-c2sc3nc(-c4nccn4C)nc(N[C@@H]4CC[C@H](OC)C4)c3c2C)c1F [drawing 629] . State its measured inhibition at 10 µM.
76 to 100%

Return value of inhibition at 10 µM for input COc1c(F)cccc1-c1sc2nc(-c3nccn3C)nc(NC3CCC(OC)C3)c2c1-c1ccccc1 (stereo not shown) [drawing 621] , no commentary.
76 to 100%

Provide measured inhibition at 10 µM value, entry: COc1c(O)nc(-c2ccccn2)nc1Oc1ccc(C(=O)N(C)C)cc1 [drawing 614]
1 to 25%

* * *

Tested on: KRas Q61H mutant
Assay: Ras GTP binding domain inhibition assay (Cy3-GTP/Cy5-GTP competition)
Parameters: species or system human
Conditions: 20 μM; with SOS (Table 7A)
From the text: The following method was developed as specific assay for the following proteins: KRas wild type, KRas Q61H mutant, KRas G12C mutant, KRas G12D mutant, HRas wild type, Rac-1, and Rho-A. […] The small GTPases proteins: KRas wild type. KRas Q61H mutant, KRas G12C mutant, KRas G12D mutants, HRas wild type, Rac-1, and Rho-A were expressed as His-tagged proteins. In addition, the Guanosine nucleotide Exchange Factor (GEF) Sos protein (residues 556-1049) was expressed as a His-tagged protein. […]
readout.label: KRas Q61H mutant + SOS: % inh.

CO[C@H]1CC[C@@H](Nc2nc(-c3nccn3C)nc3sc(C(=O)NC(C)C)c(-c4ccccc4)c23)C1 [drawing 924]; D (76-100% inhibition)
CO[C@H]1C[C@@H](Nc2nc(-c3nccn3C)nc3sc(C(=O)N4CCOCC4)c(-c4ccccc4)c23)C1 [drawing 922]; C (51-75% inhibition)
CO[C@H]1C[C@H](Nc2nc(-c3nccn3C)nc3sc(-c4ccn(C)n4)c(-c4ccccc4)c23)C1 [drawing 906]; D (76-100% inhibition)
COc1c(O)nc(-c2ccccn2)nc1Oc1ccc(C(=O)N(C)C)cc1 [drawing 879]; B (26-50% inhibition)
CCOc1cccc(Nc2nc(-c3ccccn3)nc(O)c2OC)c1 [drawing 882]; C (51-75% inhibition)
CO[C@H]1C[C@@H](Nc2nc(-c3ncc[nH]3)nc3sc(-c4ccn(C)n4)c(-c4ccccc4)c23)C1 [drawing 910]; B (26-50% inhibition)

Please find the next molecule below.
Let me know recorded KRas Q61H mutant + SOS: % inh. for CO[C@H]1C[C@@H](Nc2nc(-c3nccn3C)nc3sc(C(=O)NC(C)C)c(-c4ccccc4)c23)C1 [drawing 920] , thanks.
D (76-100% inhibition)
